# System under test: Shiga toxin 2 (Escherichia coli O157:H7) (UniProt P09385+P09386)
# Protocol text: E. coli 0.157:H7 Shiga Toxin SOP - stx2 screening assay
# Type: functional
# Design: scale not given: direction of the effect not stated beside the values
# Conditions: 30 µM
The molecules listed here are annotated with their Percent Effect.
Output spec: scalar in %, unitless text.

{"Molecule": "CC(C)C(=O)N1CCN(C(=O)c2cc(C(C)C)on2)[C@H]2CS(=O)(=O)C[C@H]21", "System under test": "Shiga toxin 2 (Escherichia coli O157:H7) (UniProt P09385+P09386)", "Percent Effect (%)": -14.2}
{"Molecule": "Cc1cc(S(=O)(=O)Nc2cccc(-n3cccc3)c2)sc1C(=O)O", "System under test": "Shiga toxin 2 (Escherichia coli O157:H7) (UniProt P09385+P09386)", "Percent Effect (%)": 11}
{"Molecule": "COC[C@@]12CC[C@@H](N3CCOCC3)C[C@H]1CCN(c1ncccc1Cl)C2", "System under test": "Shiga toxin 2 (Escherichia coli O157:H7) (UniProt P09385+P09386)", "Percent Effect (%)": 23}
{"Molecule": "CCc1cnc(CN(C(C)=O)C2CCN(CCS(C)(=O)=O)C2)o1 (stereo not given)", "System under test": "Shiga toxin 2 (Escherichia coli O157:H7) (UniProt P09385+P09386)", "Percent Effect (%)": -0.798}

Please supply the value of reported Percent Effect for the item O=C1[C@@H]2CCN(Cc3ccoc3)C[C@@H]2OCCN1Cc1cccnc1
-11.5

Reference for the values: ChEMBL document CHEMBL3988442
